Cited source for all entries: ChEMBL document CHEMBL1145117

Tested on: HCT-116
PROTOCOL_DESCRIPTION: In vitro antitumor activity against colon HCT116 tumor cell lines
Assay type: functional, cell-based, Homo sapiens
MEASUREMENT_SETUP: hct-116
pIC50: −log10 of the molar value.

# COMPOUND, pIC50
data = [
    ("CC1=C[C@H]2O[C@@H]3[C@H](O)[C@H]4OC(=O)/C=C\\C=C\\[C@@H]5O[C@H](C/C(C)=C/C(=O)OC[C@@]2(CC1)[C@]4(C)[C@]31CO1)O[C@H]5C", 7.12),
    ("CC(=O)OC(C)[C@@H](O)/C=C/C=C\\C(=O)O[C@@H]1CC2O[C@@H]3C=C(C)CC[C@]3(COC(=O)/C=C(\\C)CCO)[C@]1(C)[C@]21CO1 (stereo not given in full)", "< 5.00"),
    ("CC1=C[C@H]2O[C@@H]3[C@H](O)[C@H]4OC(=O)/C=C\\C=C\\[C@H]([C@@H](C)O)OCC/C(C)=C/C(=O)OC[C@@]2(CC1)[C@]4(C)[C@]31CO1", "> 9.00"),
    ("CC1=C[C@H]2O[C@@H]3C[C@H]4OC(=O)/C=C\\C=C\\[C@H]([C@H](C)O)OCC[C@@H](C)[C@H](O)C(=O)OC[C@@]2(CC1)[C@]4(C)[C@]31CO1", "< 5.00"),
    ("CC1=C[C@H]2O[C@@H]3[C@H](O)[C@H]4OC(=O)/C=C\\C=C\\[C@H]([C@H](C)O)OCC/C(C)=C/C(=O)OC[C@@]2(CC1)[C@]4(C)[C@]31CO1", "< 5.00"),
    ("CC(=O)OC[C@]12CCC(C)=C[C@H]1O[C@@H]1[C@H](O)[C@@H](OC(C)=O)[C@@]2(C)[C@]12CO2", "> 9.00"),
    ("CC1=C[C@H]2OC3C[C@@H](OC(=O)/C=C\\C=C\\[C@H](O)[C@H](C)O)[C@](C)([C@@]2(COC(=O)/C=C(\\C)CCO)CC1)[C@]31CO1", "< 5.00"),
    ("CC1=C[C@H]2O[C@@H]3C[C@H]4OC(=O)/C=C\\C=C\\C(=O)OCC[C@@H](C)[C@H](O)C(=O)OC[C@@]2(CC1)[C@]4(C)[C@]31CO1", "< 5.00"),
    ("CC1=C[C@H]2O[C@@H]3C[C@H]4OC(=O)/C=C\\C=C\\[C@H]([C@@H](C)O)OCC[C@@H](C)[C@H](O)C(=O)OC[C@@]2(CC1)[C@]4(C)[C@]31CO1", "< 5.00"),
    ("CC1=C[C@H]2OC3C[C@@H](OC(=O)/C=C\\C=C\\[C@H](O)[C@@H](C)O)[C@](C)([C@@]2(COC(=O)/C=C(\\C)CCO)CC1)[C@]31CO1", "< 5.00"),
]
